Entries and their composite z-score values follow.
system: Focal adhesion kinase 1 (Homo sapiens) (UniProt Q05397)
Sequence (Q05397 whole entry, looked up): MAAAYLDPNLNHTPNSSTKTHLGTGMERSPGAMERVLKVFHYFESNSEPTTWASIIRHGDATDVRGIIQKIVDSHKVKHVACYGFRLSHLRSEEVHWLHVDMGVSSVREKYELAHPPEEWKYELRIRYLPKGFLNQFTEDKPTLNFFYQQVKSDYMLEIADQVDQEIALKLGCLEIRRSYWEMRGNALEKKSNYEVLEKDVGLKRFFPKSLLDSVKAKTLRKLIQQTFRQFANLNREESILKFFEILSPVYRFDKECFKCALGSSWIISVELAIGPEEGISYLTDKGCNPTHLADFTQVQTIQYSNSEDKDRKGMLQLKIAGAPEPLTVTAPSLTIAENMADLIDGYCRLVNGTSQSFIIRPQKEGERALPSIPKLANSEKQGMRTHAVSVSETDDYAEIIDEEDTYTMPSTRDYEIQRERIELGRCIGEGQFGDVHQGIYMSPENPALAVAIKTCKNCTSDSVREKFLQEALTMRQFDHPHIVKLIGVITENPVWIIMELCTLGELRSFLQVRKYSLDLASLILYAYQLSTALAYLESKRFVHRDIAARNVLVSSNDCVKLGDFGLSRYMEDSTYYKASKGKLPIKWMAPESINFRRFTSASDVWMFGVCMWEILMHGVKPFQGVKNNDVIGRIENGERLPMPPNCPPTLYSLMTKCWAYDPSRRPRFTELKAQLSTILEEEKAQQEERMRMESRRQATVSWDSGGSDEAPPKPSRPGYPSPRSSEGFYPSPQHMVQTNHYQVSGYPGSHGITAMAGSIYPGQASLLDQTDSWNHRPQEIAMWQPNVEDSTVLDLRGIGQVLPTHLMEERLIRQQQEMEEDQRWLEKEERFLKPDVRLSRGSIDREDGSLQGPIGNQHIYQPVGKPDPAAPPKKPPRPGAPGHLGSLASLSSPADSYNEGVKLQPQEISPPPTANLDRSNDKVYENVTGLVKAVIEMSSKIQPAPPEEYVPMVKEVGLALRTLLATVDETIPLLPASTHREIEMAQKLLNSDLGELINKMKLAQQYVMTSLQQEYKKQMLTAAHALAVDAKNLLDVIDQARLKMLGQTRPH
experiment-description: small-molecule microarray binders of FAK, primary screen, biochemical, 635/667 nm fluorescence, BSA, DTT (AID 1130);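 also: composite of spot emission at 667 nm and signal to noise over triplicate slides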
particulars: PTK2 binding, 635 nm fluorescence, higher = more signal
Answer field: number only, no words.

COC(=O)C(CC#Cc1ccc2c(c1)[C@]1(C(=O)N2)[C@H](c2ccc(OCCO)cc2)N2[C@H](c3ccccc3)[C@H](c3ccccc3)OC(=O)[C@H]2[C@@H]1C(N)=O)C(=O)OC ... 0.307

Any idea what composite z-score was measured for COC(=O)[C@@]1(Cc2ccc(F)cc2)[C@H]2c3cc(C(=O)N4CCCC4)n(CCSCCO)c3C[C@H]2CN1C(=O)c1ccccc1 ?
1.11

Now try CC(C)c1ccc(NN2C(C(O)C(C)c3ccccc3)C=CC3C(=O)N(c4ccccc4)C(=O)C32)cc1 (configuration not stated) .
0.531
